Biological target: BKV serotype II chimeric infectious virus (VP1 of isolate SB) (BK virus serotype II)
Test: cell-based or functional assay
Can you tell me neutralization EC90 for the items I'm about to list?
# output: numeric value plus its unit

[[record]]
binder = "P8D11C (antibody, V domains shown) VH: QVQLVESGGTLVQPGGSLRLSCAASGFTFQNYWMTWVRQAPGKGLEWVANIKKDGSEKYYVDSVRGRFTISRDNAKNSLFLQMNSLRPEDTAVYFCATVRSGRYFALDDWGQGTLVTVSS VL: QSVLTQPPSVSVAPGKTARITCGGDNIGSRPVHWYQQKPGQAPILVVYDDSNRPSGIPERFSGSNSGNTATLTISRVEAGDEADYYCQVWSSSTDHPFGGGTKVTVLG"
result = "0.5 µg/mL"

[[record]]
binder = "P8D11B (antibody, V domains shown) VH: QVQLVESGGTLVQPGGSLRLSCAASGFTFKNYWMTWVRQAPGKGLEWVANIKKDGSEKYYVDSVRGRFTISRDNAKNSLFLQMNSLRPEDTAVYFCATVRSGRYFALDDWGQGTLVTVSS VL: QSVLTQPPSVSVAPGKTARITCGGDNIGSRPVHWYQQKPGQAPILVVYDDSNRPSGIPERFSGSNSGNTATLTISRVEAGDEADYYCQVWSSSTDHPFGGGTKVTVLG"
result = "1.93 µg/mL"


Now examine the next entry.
Exercise: Report neutralization EC90, nothing else, for this binder: P165E2 (antibody, human IgG1, lambda, V domains shown) VH: QVQLQESGPGLVKPSETLSLTCTVSGGSISRDYWTWVRQPPGEGLEWIGNIYYSGSTNYNPSLKSRVTISVAASKKQFSLKLTSVTAADTAVYYCARVPGCSSTSCIDGWFDPWGQGILVTVSS VL: QSVLTQPPSLSAAPGQRVTISCSGSSSNIGNTYVSWYQQLPGTAPKLLIYDNNKRPSGIPGRFSGSKSGTSATLGITGLQTGDEAAYYCGTWDSSLSAWVFGGGTRLTVLG
Solution: 7.98 µg/mL
